Listed here: items and their measured efflux ratio at 120 min, 5 μM.
- System: MDR1
- assay details: in vitro
- measurement conditions: dog, MDCK-MDR1, pH 7.4
assay metric: efflux ratio at 120 min, 5 μM

>>> numeric_result("CN(c1ccc(-c2cc3oc(C(=O)N4CCC4)cc3cc2O)nn1)[C@@H]1C[C@H]2CC[C@@H]([C@@H]1F)N2C [Compound 107A]")
43
>>> numeric_result("CN(c1ccc(-c2cc3ccn(C)c(=O)c3cc2O)nn1)[C@@H]1C[C@H]2CC[C@@H]([C@@H]1F)N2C (single isomer, unassigned) [Compound 97A]")
20
>>> numeric_result("Cc1nc2cc(-c3ccc(N(C)[C@@H]4C[C@H]5CC[C@@H]([C@@H]4F)N5C)nn3)c(O)cc2c(=O)n1CC(F)(F)F (single isomer, unassigned) [Compound 130A]")
113
>>> numeric_result("CN(c1ccc(-c2cc3cnccc3cc2O)nn1)[C@@H]1C[C@H]2CC[C@@H]([C@@H]1F)N2C [Compound 93A]")
3
>>> numeric_result("CC(=O)N(C)c1ccc(-c2ccc(N(C)[C@@H]3C[C@H]4CC[C@H](N4)[C@@H]3F)nn2)c(O)c1 [Compound 35A]")
197
>>> numeric_result("CN(c1ccc(-c2cc(C#N)ccc2O)nn1)[C@H]1C[C@@H]2CC[C@@H](N2)[C@H]1F (single isomer, unassigned) [Compound 70B]")
15
